- Study target: FLAG-Ago1 (Drosophila melanogaster, UniProt A1Z9J5 1-950)
- Sequence (A1Z9J5 entry or part of it): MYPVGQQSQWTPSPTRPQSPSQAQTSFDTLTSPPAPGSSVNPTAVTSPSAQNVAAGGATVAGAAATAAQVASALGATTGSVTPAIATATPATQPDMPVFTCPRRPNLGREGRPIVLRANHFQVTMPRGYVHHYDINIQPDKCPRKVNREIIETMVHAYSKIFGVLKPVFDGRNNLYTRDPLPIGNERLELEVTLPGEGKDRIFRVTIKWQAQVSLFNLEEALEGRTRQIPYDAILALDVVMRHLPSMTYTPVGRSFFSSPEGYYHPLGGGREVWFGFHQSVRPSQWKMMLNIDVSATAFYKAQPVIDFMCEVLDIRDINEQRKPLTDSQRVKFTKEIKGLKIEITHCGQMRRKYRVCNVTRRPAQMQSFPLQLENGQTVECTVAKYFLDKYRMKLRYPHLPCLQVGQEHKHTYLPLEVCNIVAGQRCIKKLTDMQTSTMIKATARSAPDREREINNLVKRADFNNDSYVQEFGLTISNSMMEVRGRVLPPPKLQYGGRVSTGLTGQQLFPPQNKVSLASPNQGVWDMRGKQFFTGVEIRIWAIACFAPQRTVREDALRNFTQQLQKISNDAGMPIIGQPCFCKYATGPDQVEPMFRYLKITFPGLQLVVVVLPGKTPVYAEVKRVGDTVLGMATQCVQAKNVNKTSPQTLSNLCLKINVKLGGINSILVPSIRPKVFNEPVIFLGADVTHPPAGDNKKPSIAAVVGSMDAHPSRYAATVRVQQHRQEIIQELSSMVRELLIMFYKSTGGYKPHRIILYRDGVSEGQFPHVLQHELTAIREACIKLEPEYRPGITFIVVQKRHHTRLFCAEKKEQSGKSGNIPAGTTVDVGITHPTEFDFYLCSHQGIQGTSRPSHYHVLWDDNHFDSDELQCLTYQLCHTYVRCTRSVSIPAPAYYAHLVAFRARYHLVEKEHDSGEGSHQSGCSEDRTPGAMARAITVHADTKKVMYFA
- Method summary: RBNS; let-7 guide; RBNS: 20 mM HEPES-KOH pH 7.9, 100 mM KOAc, 3.5 mM Mg(OAc) (magnesium acetate), 0.05% CHAPS, 2 mM DTT, 8% glycerol, BSA, tRNA, 25 C 2 h; filter binding: 25 mM HEPES-KOH pH 7.9, 110 mM KOAc, 3.5 mM magnesium acetate, 2 mM DTT, BSA, tRNA, 8% glycerol, 25 C 2 h; competition: 18 mM HEPES-KOH pH 7.4, 100 mM KOAc, 3 mM magnesium acetate, 5 mM DTT, 0.01% IGEPAL, tRNA, 25 C 1 h
- Condition label: protein: recombinant; tags: FLAG; g2-g6 + t1A
Result type: Kd (nM)
Return type: number; implicit unit nM.

Return reported Kd; argument: let-7 / 6mer-A1 (dsRNA, guide 5' phosphate) RNA 1: UGAGGUAGUAGGUUGUAUAGU RNA 2: ACCUCA
0.092
